# Tested on: NCI-H522
# assay: NCI tumour cell line growth inhibition, 48 h
Activity calls are given as the source filed them. No stated cut-off is given here; in the data, active = GI50 up to about 1.1 µM and inactive = higher.
Write down the outcome that applies. Available outcomes: active, inactive

INSERT INTO measurements (molecule, assigned_category) VALUES
  ('CO/N=C1\CC(C)N2C(=O)C(C(C)C)NC(=O)C(NC(=O)c3c4nc5c(C(=O)NC6C(=O)NC(C(C)C)C(=O)N7C(C)CC(O)C7C(=O)N(C)CC(=O)N(C)C(C(C)C)C(=O)OC6C)ccc(C)c5oc-4c(C)c(=O)c3N)C(CO)OC(=O)C(C)N(C)C(=O)CN(C)C(=O)C12 (centres undefined)', 'active'),
  ('Cn1c2ccccc2c2c(-c3ccccc3)cc3c(c21)C(=O)C=CC3=O', 'inactive'),
  ('OCc1ccc2c(c1)CC1(C2)Cc2cc3c(cc2C1O)CCC3 (centres undefined)', 'inactive'),
  ('O=C1CCC2(CCC(=O)NC2=O)C(=O)N1', 'inactive'),
  ('c1ccc2c(c1)cc1n2CC2CN=NC12 (centres undefined)', 'inactive');

Next item in the queue.
Which result was noted for this molecule in the test: CC12CC(C/C1=N/O)C(C)(C)C2 (centres undefined) inactive

Origin of values: ChEMBL document CHEMBL1201862
